Entries and their kon
# measured-target: T1, huNABA-avi-his (hybrid protein N-A1-B3-A2: N and A1 domains of human BGP, B3 domain of human CEA, A2 domain … (human, biotinylated at the avi tag (in vivo, co-transfected biotin ligase)))
# T1 construct: also called NABA-avi-his reagent; biotinylated NABA
# T1 chain: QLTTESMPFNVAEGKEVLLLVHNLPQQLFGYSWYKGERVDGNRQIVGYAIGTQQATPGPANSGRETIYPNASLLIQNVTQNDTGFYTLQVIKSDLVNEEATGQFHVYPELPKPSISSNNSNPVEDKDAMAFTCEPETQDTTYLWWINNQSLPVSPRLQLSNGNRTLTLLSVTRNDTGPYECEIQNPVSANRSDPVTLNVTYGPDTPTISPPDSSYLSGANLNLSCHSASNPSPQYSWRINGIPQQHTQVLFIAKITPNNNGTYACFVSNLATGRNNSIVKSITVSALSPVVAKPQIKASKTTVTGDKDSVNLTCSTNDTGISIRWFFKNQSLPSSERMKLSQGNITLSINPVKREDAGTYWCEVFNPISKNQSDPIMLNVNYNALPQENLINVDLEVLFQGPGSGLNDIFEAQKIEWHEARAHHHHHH
# assay-name: Proteon SPR, antibody analyte on biotinylated NABA (Neutravidin chip); column Ka (M)
# Excerpt: Proteon (Biacore) sensorgrams were obtained for the binding of the combined framework and CDR-H3 variants to the CEA antigen-harbouring chimeric protein NABA. […] The precursor clone 5L1A10 and the parental antibody CH7A were included for direct comparison. All antibodies tested in this assay had 2F1 as the light chain FIG. 25.
Write the answer as a number in M⁻¹ s⁻¹, unit excluded.

Use the examples below as a reference point.
[
  {
    "binder": "CH1A1B (Y98A/D99Y) 2F1 (antibody, V domains shown) VH: QVKLQQSGAEVKKPGASVKVSCKASGYTFTEFGMNWVRQAPGQGLEWMGWINTKTGEATYVEEFKGRVTMTTDTSTSTAYMELRSLRSDDTAVYYCARWDFAYYVEAMDYWGQGTTVTVSS VL: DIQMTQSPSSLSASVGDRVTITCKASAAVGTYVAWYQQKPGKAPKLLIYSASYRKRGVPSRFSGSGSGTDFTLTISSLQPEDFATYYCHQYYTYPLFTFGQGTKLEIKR",
    "endpoint-name": "kon",
    "meas-value": 711000
  },
  {
    "binder": "antibody with heavy chain CH7A (Y98A/D99Y) and light chain 2F1 (antibody, V domains shown, Bivalent form; also called double mutant (Y98A/D99Y)) VH: QVQLVQSGSELKKPGASVKVSCKASGYTFTEFGMNWVRQAPGQGLEWMGWINTKTGEATYVEEFKGRFVFSLDTSVSTAYLQISSLKAEDTAVYYCARWDFAYYVEAMDYWGQGTTVTVSS VL: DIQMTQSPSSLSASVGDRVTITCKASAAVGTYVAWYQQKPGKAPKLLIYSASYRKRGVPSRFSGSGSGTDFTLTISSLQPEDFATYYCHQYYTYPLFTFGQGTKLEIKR",
    "endpoint-name": "kon",
    "meas-value": 481000
  },
  {
    "binder": "humanized PR1A3 antibody with heavy chain variable region CH7A and light chain variable region 2F1 (antibody, V domains shown, Measured in the bivalent form; also called CH7Ax2F1; parental antibody CH7A) VH: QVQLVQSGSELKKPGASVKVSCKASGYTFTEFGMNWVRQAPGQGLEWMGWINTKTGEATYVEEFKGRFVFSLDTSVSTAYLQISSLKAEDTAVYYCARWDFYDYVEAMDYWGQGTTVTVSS VL: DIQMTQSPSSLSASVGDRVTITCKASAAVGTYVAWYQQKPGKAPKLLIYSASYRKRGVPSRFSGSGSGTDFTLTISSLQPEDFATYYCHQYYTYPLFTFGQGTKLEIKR",
    "endpoint-name": "kon",
    "meas-value": 369000
  }
]

Query: If you can, please state the reported kon value of CH1A1A (Y98A/D99Y) 2F1 (antibody, V domains shown, also called CH1A1A (98/99); CH1A1A (Y98A/D99Y)x2F1) VH: QVQLVQSGAEVKKPGASVKVSCKASGYTFTEFGMNWVRQAPGQGLEWMGWINTKTGEATYVEEFKGRVTFTTDTSTSTAYMELRSLRSDDTAVYYCARWDFAYYVEAMDYWGQGTTVTVSS VL: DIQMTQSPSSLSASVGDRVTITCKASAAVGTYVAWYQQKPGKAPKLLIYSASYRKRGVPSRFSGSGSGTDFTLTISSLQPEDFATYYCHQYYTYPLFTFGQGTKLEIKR .
Result: 628000
